Tested on: Staphylococcus aureus
Conditions: Concentration 20 uM; ASSAY_TEST Inhibition of Bacterial Growth; detection method Absorption (OD600); MEDIA CAMHB; plate type 384well; NBS; CORNING #3640; time 18 hr
Results with a measured potency or affinity are listed apart.
observable: Inhibition (%)
Number in %, nothing else.

[[record]]
compound = "CC(O)CO.N[C@@H](C(=O)N[C@@H]1C(=O)N2C(C(=O)O)=C(CSc3c[nH]nn3)CS[C@H]12)c1ccc(O)cc1"
systemname = "Staphylococcus aureus"
assayvalue = 31.82

[[record]]
compound = "Clc1ccc2c(c1)C(N1CCNCC1)=Nc1ccccc1O2"
systemname = "Staphylococcus aureus"
assayvalue = 3.79

[[record]]
compound = "CC(=O)OCC(CCn1cnc2cnc(N)nc21)COC(C)=O"
systemname = "Staphylococcus aureus"
assayvalue = 12.23

[[record]]
compound = "CC[C@H](C)C(=O)O[C@H]1CCC=C2C=C[C@H](C)[C@H](CC[C@@H]3C[C@@H](O)CC(=O)O3)[C@H]21"
systemname = "Staphylococcus aureus"
assayvalue = -0.69

[[record]]
compound = "O=c1c(-c2ccccc2)c1-c1ccccc1"
systemname = "Staphylococcus aureus"
assayvalue = -9.91


Q) Can you share its Inhibition? I mean this compound: C[C@]12CCC(=O)C=C1CC[C@@H]1[C@@H]2[C@@H](O)C[C@@]2(C)[C@H]1CC[C@]2(O)C(=O)CO [HYDROCORTISONE]
A) 7.72

Q) For OCc1cccnc1 , what is its reported Inhibition?
A) 10.46

Q) Record request: Inhibition value, item CCCCNC(=O)NS(=O)(=O)c1ccc(C)cc1 [TOLBUTAMIDE]
A) 4.92

* * *

Known Inhibition of a selection of compounds
System: Staphylococcus aureus
Details: Concentration 20 uM; ASSAY_TEST Inhibition of Bacterial Growth; detection method Absorption (OD600); MEDIA CAMHB; plate type 384well; NBS; CORNING #3640; time 18 hr
Potency and affinity values are given separately.
Write the answer as a number in %, unit excluded.

Please review the following examples before continuing.
[[record]]
compound = "Nc1ccc(O)c(C(=O)O)c1"
assayvalue = -19.58

[[record]]
compound = "CC(=O)NS(=O)(=O)c1ccc(N)cc1 [SULFACETAMIDE]"
assayvalue = 13.64

[[record]]
compound = "CN(Cc1cnc2nc(N)nc(N)c2n1)c1ccc(C(=O)N[C@@H](CCC(=O)O)C(=O)O)cc1.O"
assayvalue = 8.23

[[record]]
compound = "CS(=O)(=O)c1ccc(C2=C(c3ccccc3)C(=O)OC2)cc1"
assayvalue = 8.94

[[record]]
compound = "CN1CCN(CCCN2c3ccccc3Sc3ccc(C(F)(F)F)cc32)CC1.Cl.Cl [TRIFLUOPERAZINE HYDROCHLORIDE]"
assayvalue = 19.71


Q) Endpoint output: Inhibition of CN1CCCCC1CCN1c2ccccc2Sc2ccc([S+](C)[O-])cc21.O=S(=O)(O)c1ccccc1 (configuration not stated) [MESORIDAZINE BESYLATE] . Value?
A) -15.92

Q) Fill in: Inhibition of C[C@]12CC[C@@H]3c4ccc(OS(=O)(=O)[O-])cc4CC[C@H]3[C@@H]1CCC2=O.[Na+] [ESTRONE SODIUM SULFATE] is ___
A) 8.52

Q) Any idea what Inhibition was measured for CCCCC(=O)O[C@H]1CC[C@H]2[C@@H]3CCc4cc(O)ccc4[C@H]3CC[C@]12C [ESTRADIOL VALERATE] ?
A) 3.82

Q) What value of Inhibition has been reported for the following compound? CCCc1nc(C(C)(C)O)c(C(=O)OCc2oc(=O)oc2C)n1Cc1ccc(-c2ccccc2-c2nnn[nH]2)cc1
A) 10.76

Q) I am curious: what Inhibition value has been reported for CC(=O)OCC(=O)[C@@]1(O)CC[C@H]2[C@@H]3CCC4=CC(=O)C=C[C@]4(C)[C@H]3[C@@H](O)C[C@@]21C [PREDNISOLONE ACETATE] ?
A) 11.59

Q) For COc1ccccc1N1CCN(CC(O)COc2cccc3ccccc23)CC1 (configuration not stated) , what is its reported Inhibition?
A) 4.28

Q) # query: Inhibition of entry COc1cc(C)nc(-n2nc(C)cc2OC)n1 [EPIRIZOLE]
A) 7.75

Q) Would you kindly share the measured Inhibition for CC(=O)O[C@H]1C[C@@H]2CC[C@@H]3[C@H](CC[C@@]4(C)[C@H]3C[C@H]([N+]3(C)CCCCC3)[C@@H]4OC(C)=O)[C@@]2(C)C[C@@H]1N1CCCCC1.[Br-] [VECURONIUM BROMIDE] ?
A) -16.09

Q) Please give the measured Inhibition for this compound: CCC(CO)NCCNC(CC)CO (configuration not stated)
A) 8.81

Q) Quick check: Inhibition of CN(C)CCC(c1ccc(Cl)cc1)c1ccccn1.O=C(O)/C=C\C(=O)O (configuration not stated) [CHLORPHENIRAMINE MALEATE] ?
A) -22.38

Q) Consider the compound shown here: COc1c2occc2cc2ccc(=O)oc12 What is its recorded Inhibition?
A) 13.34

Q) Give its Inhibition value. Item: CCCCC(=O)N(Cc1ccc(-c2ccccc2-c2nnn[nH]2)cc1)[C@H](C(=O)O)C(C)C
A) 14.82

* * *

Tested on: Escherichia coli
Conditions: Concentration 20 uM; ASSAY_TEST Inhibition of Bacterial Growth; detection method Absorption (OD600); MEDIA CAMHB; plate type 384well; NBS; CORNING #3640; time 18 hr
Potency and affinity values are given separately.
observable: Inhibition (%)
Report only the number, with the unit % understood.

[[record]]
molecule = "O=C1Nc2ccc(Cl)cc2[C@@](C#CC2CC2)(C(F)(F)F)O1"
assayvalue = -2.05

[[record]]
molecule = "CC(N)C12CC3CC(CC(C3)C1)C2.Cl (configuration not stated) [RIMANTADINE HYDROCHLORIDE]"
assayvalue = -3.07

[[record]]
molecule = "CC(C)OC(=O)CCC/C=C\\C[C@@H]1[C@@H](CC[C@@H](O)CCc2ccccc2)[C@H](O)C[C@@H]1O"
assayvalue = 1.96

[[record]]
molecule = "COc1ccc([C@@H]2Sc3ccccc3N(CCN(C)C)C(=O)[C@@H]2OC(C)=O)cc1.Cl [DILTIAZEM HYDROCHLORIDE]"
assayvalue = 5.44

[[record]]
molecule = "COc1cc(N)c(Cl)cc1C(=O)N[C@@H]1CCN(CCCOc2ccc(F)cc2)C[C@@H]1OC.O [(R,S)-CISAPRIDE MONOHYDRATE]"
assayvalue = 2.71

[[record]]
molecule = "CCN1CCC[C@H]1CNC(=O)c1cc(S(N)(=O)=O)ccc1OC [LEVOSULPIRIDE]"
assayvalue = 3.44


Q) Which value of Inhibition has been reported for CN1CCCC(n2nc(Cc3ccc(Cl)cc3)c3ccccc3c2=O)CC1.Cl (configuration not stated) [AZELASTINE HYDROCHLORIDE] in the records?
A) 3.65

Q) Would you mind telling me what Inhibition value was observed for Nc1nc2c(ncn2COCCO)c(=O)[nH]1 ?
A) 4.79

Q) Which Inhibition value belongs to Cl.O=c1n(CCCN2CCN(c3cccc(Cl)c3)CC2)nc2ccccn12 [TRAZODONE HYDROCHLORIDE] ?
A) 0.18

Q) I am curious: what Inhibition value has been reported for Cn1cnc([N+](=O)[O-])c1Sc1ncnc2[nH]cnc12 ?
A) 3.51

Q) // query Inhibition value for entry C[C@]12CC[C@@H]3c4ccc(OS(=O)(=O)[O-])cc4CC[C@H]3[C@@H]1CCC2=O.[Na+] [ESTRONE SODIUM SULFATE]
A) 6.3

Q) Would you mind telling me what Inhibition value was observed for CC(CCCCC(=O)Nc1ccc(C(F)(F)F)cc1)NCCc1c[nH]cn1.O=C(O)/C=C\C(=O)O.O=C(O)/C=C\C(=O)O (configuration not stated) ?
A) 3.85

* * *

Test system: Staphylococcus aureus
Details: Concentration 20 uM; ASSAY_TEST Inhibition of Bacterial Growth; detection method Absorption (OD600); MEDIA CAMHB; plate type 384well; NBS; CORNING #3640; time 18 hr
Potency and affinity values are given separately.
Rule: measured Inhibition below 10% gets Satisfied; anything equal to or greater than 10% gets Not satisfied.

Record excerpt, results attached:
[[record]]
molecule = "CC1(C)C[C@@H]1C(=O)N/C(=C\\CCCCSC[C@H](N)C(=O)O)C(=O)[O-].[Na+] [CILASTATIN SODIUM]"
labelclass = "Satisfied"

[[record]]
molecule = "Cl.NC[C@H]1CC[C@H](C(=O)Oc2ccc(CCC(=O)O)cc2)CC1 [CETRAXATE HYDROCHLORIDE]"
labelclass = "Not satisfied"

[[record]]
molecule = "OC[C@H]1O[C@@H](Oc2cc(O)cc(/C=C/c3ccc(O)cc3)c2)[C@H](O)[C@@H](O)[C@@H]1O [PICEID]"
labelclass = "Satisfied"

[[record]]
molecule = "CC1CNc2c(cccc2S(=O)(=O)N[C@@H](CCCNC(=N)N)C(=O)N2CC[C@@H](C)C[C@@H]2C(=O)O)C1 (some centres not stated) [ARGATROBAN]"
labelclass = "Satisfied"

[[record]]
molecule = "CCCN(CCC)S(=O)(=O)c1ccc(C(=O)O)cc1 [PROBENECID]"
labelclass = "Not satisfied"

[[record]]
molecule = "NC(Cc1cc(I)c(Oc2ccc(O)c(I)c2)c(I)c1)C(=O)O (configuration not stated) [RATHYRONINE]"
labelclass = "Not satisfied"

[[record]]
molecule = "Cc1cccc(CN2CCN(C(c3ccccc3)c3ccc(Cl)cc3)CC2)c1.Cl.Cl (configuration not stated)"
labelclass = "Satisfied"

[[record]]
molecule = "N#Cc1ccc(C(c2ccc(C#N)cc2)n2cncn2)cc1 [LETROZOLE]"
labelclass = "Not satisfied"

[[record]]
molecule = "CC(C)(S)C(N)C(=O)O (stereo not drawn) [DL-PENICILLAMINE]"
labelclass = "Not satisfied"

[[record]]
molecule = "CC[C@H](C)C(=O)O[C@H]1C[C@H](O)C=C2C=C[C@H](C)[C@H](CC[C@@H](O)C[C@@H](O)CC(=O)[O-])[C@H]21.[Na+] [PRAVASTATIN SODIUM]"
labelclass = "Not satisfied"


Now turn to the next molecule.
Q) Please state whether Inhibition is below 10% for COC1=CC(=O)C[C@@H](C)[C@]12Oc1c(Cl)c(OC)cc(OC)c1C2=O [GRISEOFULVIN]
A) Satisfied

FYI, the data here is from ChEMBL document CHEMBL4513141.
